- Tested on: CAL-148
- test.name: normalised response (% of control), CellTiter-Glo; higher = more viable cells (100 = DMSO, 0 = benzethonium chloride kill control)
- conditions.used: incubation time: 72 h
Below is a list of entries, each paired with its recorded normalised response value.
measurement.name: normalised response (%)

• COc1ccc(C2=N[C@@H](c3ccc(Cl)cc3)[C@@H](c3ccc(Cl)cc3)N2C(=O)N2CCNC(=O)C2)c(OC(C)C)c1 [Nutlin-3] (10 nM) = 102
• CC(=O)O[C@H]1C(=O)[C@@]2(C)[C@H]([C@H](OC(=O)c3ccccc3)[C@]3(O)C[C@H](OC(=O)[C@H](O)[C@@H](NC(=O)c4ccccc4)c4ccccc4)C(C)=C1C3(C)C)[C@]1(OC(C)=O)CO[C@@H]1C[C@@H]2O [Paclitaxel] (1 nM) = 89.2
• CN(c1ccccc1CNc1nc(Nc2ccc3c(c2)CC(=O)N3)ncc1C(F)(F)F)S(C)(=O)=O (10 nM) = 101
• COc1cccc2c1C(=O)c1c(O)c3c(c(O)c1C2=O)C[C@@](O)(C(C)=O)C[C@@H]3O[C@H]1C[C@H](N)[C@H](O)[C@H](C)O1 [Daunorubicin] (100 nM) = 64.8
• COC(=O)C[C@](O)(CCCC(C)(C)O)C(=O)O[C@@H]1C(OC)=C[C@]23CCCN2CCc2cc4c(cc2[C@H]13)OCO4 [Omacetaxine] (1 nM) = 110
• C[C@@]1(C(=O)Nc2ccc(F)nc2)CCCN1c1nc(Nc2cc(C3CC3)n[nH]2)c2cccn2n1 (1 nM) = 83.3
• COC1=CC(c2cc3ccccc3[nH]2)=N/C1=C\c1[nH]c(C)cc1C [Obatoclax] (1 nM) = 87.8
• O=c1[nH]c(=O)n([C@H]2C[C@H](O)[C@@H](CO)O2)cc1F [Floxuridine] (1 nM) = 97.7
• COc1cccc2c1C(=O)c1c(O)c3c(c(O)c1C2=O)C[C@@](O)(C(C)=O)C[C@@H]3O[C@H]1C[C@H](N)[C@H](O)[C@H](C)O1 [Daunorubicin] (0.1 nM) = 112
• COc1ccc(C2=N[C@@H](c3ccc(Cl)cc3)[C@@H](c3ccc(Cl)cc3)N2C(=O)N2CCNC(=O)C2)c(OC(C)C)c1 [Nutlin-3] (1 nM) = 115
• CN1CCN(c2ccc3nc(-c4c(N)c5c(F)cccc5[nH]c4=O)[nH]c3c2)CC1 [Dovitinib] (1000 nM) = 94.9
• FC(F)c1nc2ccccc2n1-c1nc(N2CCOCC2)nc(N2CCOCC2)n1 [ZSTK474] (1000 nM) = 69.2
• FC(F)c1nc2ccccc2n1-c1nc(N2CCOCC2)nc(N2CCOCC2)n1 [ZSTK474] (1 nM) = 96.8

###

- Test system: CAL-85-1
- conditions.used: 72 h
I'd appreciate it if you marked entries yes when EC50, CellTiter-Glo is lower than 300 nM and no when it is not.

* O=c1[nH]c(=O)n([C@H]2C[C@H](O)[C@@H](CO)O2)cc1F | yes
* CC(=O)O[C@H]1C(=O)[C@@]2(C)[C@H]([C@H](OC(=O)c3ccccc3)[C@]3(O)C[C@H](OC(=O)[C@H](O)[C@@H](NC(=O)c4ccccc4)c4ccccc4)C(C)=C1C3(C)C)[C@]1(OC(C)=O)CO[C@@H]1C[C@@H]2O | yes
* COC1=C2C[C@@H](C)C[C@H](OC)[C@H](O)[C@@H](C)/C=C(\C)[C@H](OC(N)=O)[C@@H](OC)/C=C\C=C(/C)C(=O)NC(=CC1=O)C2=O | no
* CCOc1cc2ncc(C#N)c(Nc3ccc(OCc4ccccn4)c(Cl)c3)c2cc1NC(=O)/C=C/CN(C)C | yes
* CC(C)C[C@H](NC(=O)[C@H](Cc1ccccc1)NC(=O)c1cnccn1)B(O)O | yes
* O=c1[nH]cc(F)c(=O)[nH]1 | yes
